- Test system: T-Rex 293 cell line SC3 cells lacking increased expression of androgen receptor protein
- procedure-text: Cellular growth inhibition assay, T-Rex 293 SC3 cells without doxycycline (CellTiter-Glo, 72 hours)
- Assay type: cell-based
- experimental-setup: 72 h, T-Rex 293 cell line SC3 cells not exposed to doxycycline (lacking increased androgen receptor expression)
measured-quantity: GI50

Req: Fill in GI50 for record Cc1sc2c(c1C)C(c1ccc(CCC[C@H]3CCCN(c4ccc(C(=O)N[C@H]5CC[C@H](OC6CCC(C#N)C(Cl)C6)CC5)nn4)CC3)cc1)=N[C@@H](Cc1ncco1)c1nnc(C)n1-2 (stereo partly shown) [I-395]
Resp: < 500 nM

Req: Fill in GI50 for record CCNC(=O)C[C@@H]1N=C(c2ccc(N3CCC(CN4CCN(c5ccc(C(=O)N[C@H]6CC[C@H](Oc7ccc(C#N)c(Cl)c7)CC6)nn5)CC4)CC3)cc2)c2c(sc(C)c2C)-n2c(C)nnc21 [I-36]
Resp: 500 to 1500 nM

Req: Fill in GI50 for record Cc1sc2c(c1C)C(c1ccc(C#CC3CC4(C3)CN(c3ccc(C(=O)N[C@H]5CC[C@H](Oc6ccc(C#N)c(Cl)c6)CC5)nn3)C4)cc1)=NC1(CC1)c1nnc(C)n1-2 [I-418]
Resp: < 500 nM

Req: Fill in GI50 for record Cc1sc2c(c1C)C(c1ccc(N3CCC(Cc4ccc(C(=O)N[C@H]5CC[C@H](Oc6ccc(C#N)c(Cl)c6)CC5)nn4)CC3)cc1)=N[C@@H](C)c1nnc(C)n1-2 [I-606]
Resp: > 3000 nM

Req: Fill in GI50 for record Cc1sc2c(c1C)C(c1ccc(CC3CC(OC4CCN(c5ccc(C(=O)NC6CCC(Oc7ccc(C#N)c(Cl)c7)CC6)nn5)CC4)C3)cc1)=NC(C)c1nnc(C)n1-2 (stereo not shown) [I-603]
Resp: < 500 nM

Req: Fill in GI50 for record Cc1sc2c(c1C)C(c1ccc(C#CC3CC4(C3)CN(c3ccc(C(=O)N[C@H]5CC[C@H](Oc6ccc(C#N)c(Cl)c6)CC5)nn3)C4)cn1)=N[C@@H](C)c1nnc(C)n1-2 [I-458]
Resp: < 500 nM

Req: Fill in GI50 for record Cc1sc2c(c1C)C(c1ccc(C3CN(C4CCN(c5ccc(C(=O)N[C@H]6CC[C@H](Oc7ccc(C#N)c(Cl)c7)CC6)nn5)C4)C3)cc1)=N[C@@H](Cc1ncco1)c1nnc(C)n1-2 (stereo partly shown) [I-209]
Resp: < 500 nM

Req: Fill in GI50 for record Cc1sc2c(c1C)C(c1ccc([C@@H]3CCN(C(=O)[C@H]4CCCN(c5ccc(C(=O)N[C@H]6CC[C@H](Oc7ccc(C#N)c(Cl)c7)CC6)nn5)C4)C3)cc1)=N[C@@H](Cc1ncco1)c1nnc(C)n1-2 [I-344]
Resp: > 3000 nM

Req: Fill in GI50 for record Cc1sc2c(c1C)C(c1ccc(Cl)cc1)=N[C@@H](CC(=O)NCCOCCOCCOCCOCCOCCOCCOC1CCN(c3ccc(C(=O)N[C@H]4CC[C@H](Oc5ccc(C#N)c(Cl)c5)CC4)nn3)CC1)c1nnc(C)n1-2 [I-4]
Resp: > 3000 nM

Req: Fill in GI50 for record Cc1sc2c(c1C)C(c1ccc([C@H]3C[C@@H]([C@@H]4CCCN(c5ccc(C(=O)N[C@H]6CC[C@H](Oc7ccc(C#N)c(Cl)c7)CC6)nn5)C4)C3)cc1)=N[C@@H](Cc1ncco1)c1nnc(C)n1-2 [I-374]
Resp: > 3000 nM
